# inhibition per record follows
# Assay Target: Pantothenate synthetase (Mycobacterium tuberculosis (strain ATCC 25618 / H37Rv)) (UniProt P9WIL5)
# Sequence (P9WIL5 whole entry, looked up): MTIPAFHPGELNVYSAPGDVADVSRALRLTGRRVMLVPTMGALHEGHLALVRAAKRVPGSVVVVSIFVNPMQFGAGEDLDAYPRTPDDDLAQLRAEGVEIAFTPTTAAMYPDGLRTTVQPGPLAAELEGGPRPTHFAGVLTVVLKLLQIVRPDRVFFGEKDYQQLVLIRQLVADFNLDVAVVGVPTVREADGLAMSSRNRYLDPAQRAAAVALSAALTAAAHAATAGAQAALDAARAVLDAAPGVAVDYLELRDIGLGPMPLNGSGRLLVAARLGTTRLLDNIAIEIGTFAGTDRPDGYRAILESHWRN
# Assay Notes: Coupled enzyme confirmation of inhibitors against recombinant Mtb PanC (AID 375);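 note: 0% = full reaction with vehicle and 100% = no enzyme background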
# Measurement Context: coupled enzyme assay; at 10 µM, active compounds read high
Give the quantity in %, number only.

Answered examples (3):
{"Compound": "CCOC(=O)N1CCN(c2cc(=O)n(-c3cccc(Br)c3)c(=O)[nH]2)CC1", "Measurement Label": "inhibition", "Numeric Result": 0}
{"Compound": "CCC(C)c1ccc(NC(=O)C2CC2)cc1 (configuration not stated)", "Measurement Label": "inhibition", "Numeric Result": 0}
{"Compound": "Nc1nc(N2CCCCC2)nc(N(c2ccccc2)c2ccccc2)n1", "Measurement Label": "inhibition", "Numeric Result": 3}

Ask: Would you kindly share the measured inhibition for `O=C(Nc1cccc(Cl)c1)N1CCN(c2ncccn2)CC1` ?
Result: 1

Ask: Returns the measured inhibition for the input compound. Input: `COc1ccc(-n2ncc3c(NCc4ccccn4)ncnc32)cc1`
Result: 11

Ask: // query inhibition value for entry Cc1ccc(N(C(C)C(=O)Nc2ccc(S(=O)(=O)N3CCOCC3)cc2)S(C)(=O)=O)cc1 (configuration not stated)
Result: 0

Ask: What measured inhibition goes with `CC(=O)Nc1ccccc1O` ?
Result: 9

Ask: Requested read-out: inhibition. Entry: O=P(O)(O)C(O)C(F)(F)C(F)(F)C(F)(F)C(F)F (configuration not stated)
Result: 0

---

Reported inhibition values follow for various compounds
# Assay Target: Pantothenate synthetase (Mycobacterium tuberculosis (strain ATCC 25618 / H37Rv)) (UniProt P9WIL5)
# Assay Notes: Coupled enzyme confirmation of inhibitors against recombinant Mtb PanC (AID 375);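 note: 0% = full reaction with vehicle and 100% = no enzyme background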
# Measurement Context: coupled enzyme assay; at 10 µM, active compounds read high
Unit % implied. Number only.

Ask: I am curious: what inhibition value has been reported for `Nn1c(SCC(=O)Nc2ccc3c(c2)OCCO3)nnc1C(F)(F)F` ?
Result: 4

Ask: Consider the compound `Cc1cc(C(=O)Nc2sc3c(c2C#N)CCCCC3)cs1` and give its measured inhibition.
Result: 0

Ask: Value lookup for inhibition; key = CC(CN1c2ccccc2Sc2ccccc21)N(C)C (centres undefined)
Result: 0

Ask: Which inhibition is listed for `Cc1cc(=O)oc2cc(Oc3ncccn3)ccc12` ?
Result: 6

Ask: Using the record for `CN(C)C(=O)N1CCC(C(=O)NC2CCCCCCC2)CC1` , report its inhibition.
Result: 0

---

Listed here are compounds together with their documented inhibition.
# Assay Target: Pantothenate synthetase (Mycobacterium tuberculosis (strain ATCC 25618 / H37Rv)) (UniProt P9WIL5)
# Assay Notes: Coupled enzyme confirmation of inhibitors against recombinant Mtb PanC (AID 375);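 note: 0% = full reaction with vehicle and 100% = no enzyme background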
# Measurement Context: coupled enzyme assay; at 10 µM, active compounds read high
Provide the reading as a plain figure in %.

# count of solved cases: 4
{"Compound": "COc1ccc(CNC(=O)c2cc3c(=O)n4ccccc4nc3n(Cc3ccco3)c2=N)cc1", "Measurement Label": "inhibition", "Numeric Result": 0}
{"Compound": "Cc1cc(C)n(CC(=O)n2c3c(c4ccccc42)CCCC3)n1", "Measurement Label": "inhibition", "Numeric Result": 2}
{"Compound": "O=C(CSc1nc(-c2ccco2)cc(C(F)(F)F)n1)NCCCn1ccnc1", "Measurement Label": "inhibition", "Numeric Result": 8}
{"Compound": "NC(=O)CN1C(=O)C(O)(CC(=O)c2ccccc2O)c2ccccc21 (configuration not stated)", "Measurement Label": "inhibition", "Numeric Result": 0}

Ask: Given the compound `Cc1cnc(C(=O)Nc2ccc(-n3cnnn3)cc2)cn1` , what is its reported inhibition?
Result: 14

Ask: What does the data say about its inhibition? Entry: COc1ccccc1CC(=O)NCC1CCCO1 (configuration not stated)
Result: 0

Ask: Which measured inhibition value corresponds to `COc1ccc(-c2nsc(SCC(=O)Nc3cc(C)on3)n2)cc1` ?
Result: 0
